Assay system UniProt O43353; read-out recorded as IC50.
Sequence (O43353 whole entry): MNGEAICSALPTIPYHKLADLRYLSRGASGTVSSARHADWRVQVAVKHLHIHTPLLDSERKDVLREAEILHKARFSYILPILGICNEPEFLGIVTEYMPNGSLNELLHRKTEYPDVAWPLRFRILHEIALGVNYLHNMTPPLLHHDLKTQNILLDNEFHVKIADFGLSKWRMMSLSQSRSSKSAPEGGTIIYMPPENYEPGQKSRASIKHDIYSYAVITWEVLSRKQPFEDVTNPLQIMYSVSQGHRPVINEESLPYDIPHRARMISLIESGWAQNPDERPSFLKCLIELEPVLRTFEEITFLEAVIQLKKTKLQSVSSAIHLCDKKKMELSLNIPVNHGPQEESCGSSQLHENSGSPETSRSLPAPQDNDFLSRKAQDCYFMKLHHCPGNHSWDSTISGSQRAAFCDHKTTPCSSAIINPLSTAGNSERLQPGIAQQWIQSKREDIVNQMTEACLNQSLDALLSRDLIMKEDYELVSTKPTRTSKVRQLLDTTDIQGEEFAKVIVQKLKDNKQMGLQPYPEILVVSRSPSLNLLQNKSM

Observe how each entry below is paired with its result.
Req: Lab request: please report IC50 under test system UniProt O43353 for CCN1CCC[C@@H](c2cc3c(Nc4cc5ncsc5cc4F)ccnc3s2)[C@H]1C [Example 53b]
Resp: ≤ 10 nM

Req: Entry CCN1CCC(c2cc3c(Nc4cc5ncsc5cc4F)ccnc3s2)C1C (stereo not drawn) , system UniProt O43353: what IC50 was measured?
Resp: 10 to 20 nM

Req: What IC50 appears in the records for this compound with UniProt O43353? CC1NCCCC1c1cc2c(Nc3ccc4scnc4c3)c(F)cnc2s1 (single isomer, unassigned) [Example 119d]
Resp: ≥ 50 nM

Req: Lab request: please report IC50 under test system UniProt O43353 for CC1C(c2cc3c(Nc4ccc5scnc5c4)ccnc3s2)CCN1C (stereo not drawn)
Resp: ≤ 10 nM

Req: Please tell me: IC50 of C[C@H]1NCCC[C@@H]1c1cc2c(Nc3ccc4scnc4c3F)ccnc2s1 [Example 56a] , system UniProt O43353?
Resp: ≤ 10 nM

Continuing:
Req: Item: CC1NCCCC1c1cc2c(Nc3c(F)cc4scnc4c3F)c(F)cnc2s1 (stereo not drawn) [Example 126a] Test system: UniProt O43353 Read-out: IC50 Value: ?
Resp: ≤ 10 nM

Req: Query IC50 on UniProt O43353 for C[C@@H]1NCCC[C@@H]1c1cc2c(Nc3c(F)cc4scnc4c3F)ccnc2s1 [Example 68b]
Resp: ≤ 10 nM

Req: Lab note: need IC50 for CC1C(c2cc3c(Nc4ccc5scnc5c4)ccnc3s2)CCCN1CCF (stereo not drawn) on UniProt O43353, anyone have it?
Resp: ≤ 10 nM

Req: Find the measured IC50: item C[C@H]1[C@H](c2cc3c(Nc4c(F)cc5scnc5c4F)ccnc3s2)CCCN1C [Example 71a] , target or system UniProt O43353.
Resp: ≤ 10 nM
